Data credit: ChEMBL document CHEMBL1142936

Readings of RUmax for the listed compounds
target: Major prion protein (Homo sapiens); assay: Binding affinity at human PrPC at 40 uM by SPR assay
Give just the number in %; leave the unit off.

See these solved cases before continuing.
Looking for the measured RUmax of O=C(Nc1oc(-c2ccccc2)nc1-c1ccccc1)C(F)(F)F , can you help?
13.7

Looking for the measured RUmax of O=C(Nc1oc(-c2ccccc2)nc1-c1ccccc1)c1cccnc1 , can you help?
37.3

Looking for the measured RUmax of COc1ccc(C(=O)Nc2oc(-c3ccccc3)nc2-c2ccccc2)cc1 , can you help?
0

Continuing:
Looking for the measured RUmax of CC(C)(C)OC(=O)Nc1oc(-c2ccccc2)nc1-c1ccccc1 , can you help?
11.3

Looking for the measured RUmax of O=C(Nc1sc(-c2ccccc2)nc1-c1ccccc1)C(F)(F)F , can you help?
9.5

Looking for the measured RUmax of O=C(Nc1oc(-c2ccccc2)nc1-c1ccccc1)c1ccc([N+](=O)[O-])o1 , can you help?
0

Looking for the measured RUmax of Cc1ccc(C(=O)Nc2sc(-c3ccccc3)nc2-c2ccccc2)s1 , can you help?
19.8

Looking for the measured RUmax of O=C(Nc1sc(-c2ccccc2)nc1-c1ccccc1)C1CC1 , can you help?
0

Looking for the measured RUmax of O=C(Nc1sc(-c2ccccc2)nc1-c1ccccc1)c1ccccc1 , can you help?
0

Looking for the measured RUmax of O=C(Nc1oc(-c2ccccc2)nc1-c1ccccc1)c1ccno1 , can you help?
18.3

====

target: Major prion protein (Homo sapiens); assay: Binding affinity at human PrPC at 40 uM by SPR assay
Consider the cut-off 4%. If the recorded RUmax is strictly smaller, the label is T; if not, the label is F.

Sample answers from the record:
# strict comparison: is reported RUmax < 4%? input = CCCC(CCC)C(=O)Nc1sc(-c2ccccc2)nc1-c1ccccc1
T

# strict comparison: is reported RUmax < 4%? input = O=C(Nc1oc(-c2ccccc2)nc1-c1ccccc1)c1ccncc1
T

# strict comparison: is reported RUmax < 4%? input = O=C(Nc1oc(-c2ccccc2)nc1-c1ccccc1)c1ccc2ccccc2n1
T

Continuing:
# strict comparison: is reported RUmax < 4%? input = O=C(Nc1oc(-c2ccccc2)nc1-c1ccccc1)c1cccs1
F

# strict comparison: is reported RUmax < 4%? input = O=C(Nc1oc(-c2ccccc2)nc1-c1ccccc1)c1ccc(C(F)(F)F)cc1
T

# strict comparison: is reported RUmax < 4%? input = O=C(Nc1sc(-c2ccccc2)nc1-c1ccccc1)c1ccco1
F

# strict comparison: is reported RUmax < 4%? input = O=C(Nc1sc(-c2ccccc2)nc1-c1ccccc1)c1ccncc1
F

====

molecular target: Major prion protein (Homo sapiens) (UniProt P04156); assay: Binding affinity at human PrPC at 40 uM by SPR assay
measurement-kind: RUmax (%)
Give just the number in %; leave the unit off.

See these solved cases before continuing.
Looking for the measured RUmax of O=C(Nc1sc(-c2ccccc2)nc1-c1ccccc1)c1ccno1 , can you help?
0

Looking for the measured RUmax of O=C(Nc1oc(-c2ccccc2)nc1-c1ccccc1)c1ccc(F)cc1 , can you help?
0

Looking for the measured RUmax of O=C(Nc1sc(-c2ccccc2)nc1-c1ccccc1)c1ccccc1C(F)(F)F , can you help?
0

Continuing:
Looking for the measured RUmax of O=C(Nc1sc(-c2ccccc2)nc1-c1ccccc1)c1ccc(C(F)(F)F)cc1 , can you help?
0

Looking for the measured RUmax of O=C(Nc1sc(-c2ccccc2)nc1-c1ccccc1)c1ccc([N+](=O)[O-])o1 , can you help?
0

Looking for the measured RUmax of O=C(Nc1oc(-c2ccccc2)nc1-c1ccccc1)c1cc2ccccc2o1 , can you help?
48.9

Looking for the measured RUmax of O=C(Nc1sc(-c2ccccc2)nc1-c1ccccc1)c1cccnc1 , can you help?
0

Looking for the measured RUmax of O=C(Nc1sc(-c2ccccc2)nc1-c1ccccc1)c1nc2ccccc2s1 , can you help?
40.1

Looking for the measured RUmax of O=C(Nc1oc(-c2ccccc2)nc1-c1ccccc1)C1CC1 , can you help?
0

====

target: Major prion protein (Homo sapiens) (UniProt P04156); assay: Binding affinity at human PrPC at 40 uM by SPR assay
measurement-kind: RUmax (%)
Give just the number in %; leave the unit off.

See these solved cases before continuing.
Looking for the measured RUmax of O=C(Nc1oc(-c2ccccc2)nc1-c1ccccc1)c1ccco1 , can you help?
3.8

Looking for the measured RUmax of O=C(Nc1sc(-c2ccccc2)nc1-c1ccccc1)c1cccc(C(F)(F)F)c1 , can you help?
65

Looking for the measured RUmax of O=C(Nc1oc(-c2ccccc2)nc1-c1ccccc1)c1cc2ccccc2s1 , can you help?
48

Let us examine a further case.
Looking for the measured RUmax of O=C(Nc1sc(-c2ccccc2)nc1-c1ccccc1)c1cc2ccccc2s1 , can you help?
21.1
